Biological target: GAL4-NR4A1 (Homo sapiens)
Sequence (P22736 360-595 limits assumed): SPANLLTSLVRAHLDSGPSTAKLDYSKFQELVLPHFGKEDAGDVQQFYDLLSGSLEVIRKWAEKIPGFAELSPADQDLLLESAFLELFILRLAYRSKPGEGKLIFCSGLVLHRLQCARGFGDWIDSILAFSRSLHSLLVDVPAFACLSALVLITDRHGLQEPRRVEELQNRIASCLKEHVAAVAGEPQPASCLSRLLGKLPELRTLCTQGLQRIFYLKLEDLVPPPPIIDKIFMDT
Experiment: NR4A1-dependent transactivation, GAL4-NR4A1/UAS-luc, Rh30 cells
Assay type: cell-based
Design: expressed in transfected cells; host or cells: Rh30 rhabdomyosarcoma cells
Settings: 50 µM
property: effect on NR4A1-dependent transactivation

1) O=c1cc(-c2ccc(O)cc2)oc2ccccc12 [4′-Hydroxyflavone]	potent inhibition
2) O=c1c(O)c(-c2ccc(O)c(O)c2)oc2cccc(O)c12 [3,5,3′,4-tetrahydroxyflavone]	potent inhibition

###

Molecular target: ligand-binding domain (LBD) of NR4A1 (Homo sapiens, UniProt P22736)
Sequence (P22736 360-595 limits assumed): as above
Experiment: Direct-binding fluorescence assay (quenching of NR4A1 tryptophan fluorescence)
Conditions: fluorescent binding assay; read-out: KD (Figure 1)
property: Kd (µM)

[1] O=c1cc(-c2cccc(O)c2)oc2ccccc12 [3′-Hydroxyflavone]
[2] O=c1cc(-c2ccc(O)cc2)oc2cc(O)cc(O)c12 [5,7,4′-Trihydroxyflavone (Apigenin), 5,7,4′-Trihydroxyflavone]
Ask: // compare measured Kd between 1 and 2 ; output the lower one I would appreciate it if you answered with the label of your choice.
Result: 2
(2: 0.08 µM, 1: 45.8 µM)

###

Biological target: ligand-binding domain (LBD) of NR4A1 (Homo sapiens, UniProt P22736)
Test: Direct-binding fluorescence assay (quenching of NR4A1 tryptophan fluorescence)
Settings: fluorescence (Trp quenching) assay; Table 1 head prints no unit, µM from text and Figure 5; read-out: KD, direct binding assay
property: Kd (µM)

Sample answers from the record:
1) O=c1cc(-c2ccccc2)oc2ccc(O)cc12 [6-Hydroxyflavone]	12.5
2) O=c1c(O)c(-c2ccc(O)cc2)oc2cc(O)cc(O)c12 [3,5,7,4′-Tetrahydroxyflavone]	3.1
3) O=c1cc(-c2cccc(O)c2)oc2ccccc12 [3′-Hydroxyflavone]	45.8
4) O=c1cc(-c2ccccc2)oc2cc(O)cc(O)c12 [5,7 Dihydroxyflavone]	11.3
5) O=c1cc(-c2ccccc2)oc2cc(O)c(O)c(O)c12 [5,6,7 -Trihydroxyflavone (Baicalein), 5,6,7-Trihydroxyflavone]	1.85
6) O=c1cc(-c2ccc(O)c(O)c2)oc2ccccc12 [3′,4′-Dihydroxyflavone]	0.96
7) O=c1c(O)c(-c2ccccc2)oc2cc(O)cc(O)c12 [3,5,7 -Trihydroxyflavone (Galangin), 3,5,7-Trihydroxyflavone]	0.36
8) O=c1c(O)c(-c2ccccc2)oc2cc(O)ccc12 [3,7-Dihydroxyflavone]	2.8

[I] O=c1cc(-c2ccccc2)oc2ccccc12 [Flavone]
[II] O=c1c(O)c(-c2ccccc2)oc2ccc(O)cc12 [3,6-Dihydroxyflavone]
Ask: // compare measured Kd between I and II ; output the lower one I would appreciate it if you answered with the label of your choice.
Result: II
(II: 0.66 µM, I: 3.4 µM)

###

Target: ligand-binding domain (LBD) of NR4A1 (Homo sapiens)
Experiment: Direct-binding fluorescence assay (quenching of NR4A1 tryptophan fluorescence)
Conditions: fluorescence (Trp quenching) assay; Table 1 head prints no unit, µM from text and Figure 5; read-out: KD, direct binding assay
property: Kd (µM)

1. O=c1cc(-c2ccc(O)cc2)oc2cc(O)cc(O)c12 [5,7,4′-Trihydroxyflavone (Apigenin), 5,7,4′-Trihydroxyflavone]	1.77
2. O=c1cc(-c2ccccc2)oc2cccc(O)c12 [5-Hydroxyflavone]	1.4

[a] O=c1cc(-c2ccc(O)cc2)oc2ccccc12 [4′-Hydroxyflavone]
[b] O=c1cc(-c2ccc(O)c(O)c2)oc2cc(O)cc(O)c12 [5,7,3′4′-Tetrahydroxyflavone (Luteolin), 5,7,3′4′-Tetrahydroxyflavone]
Ask: // compare measured Kd between a and b ; output the lower one I would appreciate it if you answered with the label of your choice.
Result: b
(b: 5.1 µM, a: 13 µM)

The reported measurements were obtained from paper PMC10179475.
